studyTarget: fusion protein PRV
Sequence (chain, as listed by the source): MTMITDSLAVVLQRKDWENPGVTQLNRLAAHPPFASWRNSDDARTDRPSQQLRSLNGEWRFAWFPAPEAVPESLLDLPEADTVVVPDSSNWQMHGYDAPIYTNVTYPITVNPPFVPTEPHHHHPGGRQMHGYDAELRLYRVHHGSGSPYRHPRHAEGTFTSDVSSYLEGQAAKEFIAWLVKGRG
quantityMeasured: relative cleavage efficiency

INSERT INTO measurements (protein, testvalue) VALUES
  ('OmpT protease variant OmpT D97N (protein) STETLSFTPDNINADISLGTLSGKTKERVYLAEEGGRKVSQLDWKFNNAAIIKGAINWDLMPQISIGAAGWTTLGSRGGNMVDQDWMDSSNPGTWTNESRHPDTQLNYANEFDLNIKGWLLNEPNYRLGLMAGYQESRYSFTARGGSYIYSSEEGFRDDIGSFPNGERAIGYKQRFKMPYIGLTGSYRYEDFELGGTFKYSGWVESSDNDEHYDPGKRITYRSKVKDQNYYSVAVNAGYYVTPNAKVYVEGAWNRVTNKKGNTSLYDHNNNTSDYSKNGAGIENYNFITTAGLKYTF', '< 3%');

Now consider a different protein.
Requested read-out: relative cleavage efficiency. Entry: OmpT protease variant OmpT D97L (protein) STETLSFTPDNINADISLGTLSGKTKERVYLAEEGGRKVSQLDWKFNNAAIIKGAINWDLMPQISIGAAGWTTLGSRGGNMVDQDWMDSSNPGTWTLESRHPDTQLNYANEFDLNIKGWLLNEPNYRLGLMAGYQESRYSFTARGGSYIYSSEEGFRDDIGSFPNGERAIGYKQRFKMPYIGLTGSYRYEDFELGGTFKYSGWVESSDNDEHYDPGKRITYRSKVKDQNYYSVAVNAGYYVTPNAKVYVEGAWNRVTNKKGNTSLYDHNNNTSDYSKNGAGIENYNFITTAGLKYTF
< 3%
